tested_system: cyno MSLN (Macaca fascicularis)
experiment_summary: BLI (Octet), bsAb in 1+1 Fab-scFv-Fc format
property_measured: kon (M⁻¹ s⁻¹)
All answers are understood in M⁻¹ s⁻¹, so give the number only.

XENP32557 (bispecific antibody, part only; not given: anti-CD3 scFv-Fc arm, constant regions, V domains shown, not shown: another chain or arm of the molecule; a dimerising Fc or GST; small tags and cut ends) VH: QVQLVQSGAEVKKPGASVKVSCKASGYTFTSYWMHWVRQAPGQGLEWMGMIHPNSDNTIYYEKFQGRVTMTVDKSISTAYMELSRLRSDDTAVYYCAIIISPVVPKFDYWGQGTLVTVSS VL: DIVMTQSPDSLAVSLGERATINCKASHDVGTSVAWYQQKPGQSPKLLIYWASTRHTGVPDRFTGSGSGTDFTLTISSLQAEDVAVYFCQQYSSYPLTFGAGTKLEIK    518000

Please find the next binder below.
# get_value(readout='kon', item= XENP32565 (bispecific antibody, part only; not given: anti-CD3 scFv-Fc arm, constant regions, V domains shown, not shown: another chain or arm of the molecule; a dimerising Fc or GST; small tags and cut ends) VH: QVQLVQSGAEVKKPGASVKVSCKASGYTFTSYWMHWVRQAPGQGLEWMGMIHPNSDNTIYYEKFQGRVTMTVDKSISTAYMELSRLRSDDTAVYYCAIIITPVVPKFDYWGQGTLVTVSS VL: DIVMTQSPDSLAVSLGERATINCKASHDVGTSVAWYQQKPGQSPKLLIYWASTRETGVPDRFTGSGSGTDFTLTISSLQAEDVAVYFCQQYSSYPLTFGAGTKLEIK )
592000
